assay: self-splicing fitness, log relative to wild type (ln ratio); higher = more splicing; Tetrahymena group I intron in knt gene, E. coli kanamycin selection, DiMSum; sequences stand for … in CUCUCU…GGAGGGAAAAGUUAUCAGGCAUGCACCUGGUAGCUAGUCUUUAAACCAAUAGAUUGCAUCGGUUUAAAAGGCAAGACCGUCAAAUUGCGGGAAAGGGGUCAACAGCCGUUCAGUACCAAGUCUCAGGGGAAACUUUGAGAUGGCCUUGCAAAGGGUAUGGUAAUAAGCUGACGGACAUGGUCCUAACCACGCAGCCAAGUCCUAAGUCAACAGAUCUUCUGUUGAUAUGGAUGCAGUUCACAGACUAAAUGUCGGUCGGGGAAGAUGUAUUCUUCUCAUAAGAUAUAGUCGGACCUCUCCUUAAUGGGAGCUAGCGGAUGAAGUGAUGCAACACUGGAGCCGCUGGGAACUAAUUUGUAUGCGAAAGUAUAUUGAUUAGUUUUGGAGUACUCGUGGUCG; settings: 37 °C;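 note: selection with 25 µg/mL kanamycin versus none on LB agar overnight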
Class boundaries, taken from values of self-splicing fitness (ln), are as follows: small value: < -2; mid value: ≥ -2 and < -0.8; large value: ≥ -0.8

These recorded examples may help you get a feel for the data.
monomer-sequence | classification
UAGAAGCAAUAUUACGUAUG | mid value
GCAUAGCAAUAUUACGGUAU | mid value
AAGGAGCAAUAUUACGCCAA | small value
GACAAGCAAUAUUACGGUAC | small value
ACACAGCAAUAUUACGCAAU | mid value

## Task Quick check: band for UCUGAGCAAUAUUACGAGAG
## Result small value

## Task Hi there! Could you help me figure out the category for CCUAAGCAAUAUUACGAUCG please?
## Result large value

## Task Class label required: GACAAGCAAUAUUACGACUU
## Result large value
